Tested on: A498 renal
Experiment: NCI tumour cell line growth inhibition, 48 h; in the data active means GI50 below about 0.43 µM; inactive means the rest
Log the outcome using a class from active, inactive

Prompt: Given NCCCCCCCCCn1c2c(c3ccccc3c1=O)C(=O)c1ccccc1-2 , state the outcome it received in this test.
Response: inactive

Prompt: Then what about the molecule Cn1cc(-c2ccc3nnc(C(F)(F)c4ccc5ncccc5c4)n3n2)cn1 ?
Response: inactive

Prompt: Proceed to CNC(=O)c1cc(Oc2cccc3nc(NC(=O)Nc4ccc(F)cc4F)ccc23)ccn1
Response: active

Prompt: Also CCOC(=O)Nc1cc(-c2ccc(C)c(NS(C)(=O)=O)c2)nn2c(C)nnc12 , if possible.
Response: inactive

Prompt: And for CS(=O)(=O)c1ccc(-c2cnc(NCc3ccco3)n3cnnc23)cc1 ?
Response: inactive

Prompt: Item: [Au+].c1c[n-]cn1.c1ccc([PH+](c2ccccc2)c2ccccc2)cc1
Response: inactive

Prompt: Do the same for CNC(=O)c1cc(Oc2ccc3nc(NC(=O)Nc4cc(C(F)(F)F)cc(C(F)(F)F)c4)sc3c2)ccn1 please
Response: inactive

Prompt: Param item: CCN(CC)CCNC(=O)C(Cl)=C1C(Cl)=C(Cl)C(Cl)=C1Cl
Response: inactive

Prompt: Try this molecule next: ClCc1ccc(-c2ccc(Cn3cnc4c(Cl)ncnc43)cc2)cc1
Response: inactive

Prompt: Would you kindly repeat that for Clc1ccc(Nc2ncnc3c2sc2ncccc23)c(Cl)c1 ?
Response: active

* * *

Tested on: SW-620 colon
Experiment: NCI tumour cell line growth inhibition, 48 h; in the data active = GI50 below about 0.43 µM; inactive = the rest
Return exactly one item of active, inactive

Below, 2 compounds whose answers are already recorded.
>  <smiles.entry>
C=C(C)[C@@H]1CC[C@]2(C(=O)N3CCN(C)CC3)CC[C@]3(C)[C@H](CC[C@@H]4[C@@]5(C)CC[C@H](O)C(C)(C)[C@@H]5CC[C@]43C)[C@@H]12

>  <category>
inactive

$$$$
>  <smiles.entry>
CCN(CC)CCNC(=O)C(Cl)=C1C(Cl)=C(Cl)C(Cl)=C1Cl

>  <category>
inactive

$$$$

Prompt: // param item: O=C(Nc1ccc(Cl)cc1)c1cc2ccccc2cc1OP(=O)(O)O ; yields the recorded call
Response: inactive

Prompt: Try this compound too: Cn1c(=O)c(-c2c(Cl)cccc2Cl)cc2cnc(Nc3ccc(I)cc3)nc21
Response: active

* * *

Tested on: CAKI-1 renal
Test: NCI tumour cell line growth inhibition, 48 h
measure.name: TGI (µM)
Give a bare numeral; the unit µM is implied.

Prompt: For the compound COc1ccc2c(c1)C(=O)c1c-2c(OCCN2CCCCC2)nc2ccc(OC)cc12 , what TGI is on record?
Response: 2.96

Prompt: Please give the result for Cc1ccc(S(=O)(=O)OC2CSSCC2OS(=O)(=O)c2ccc(C)cc2)cc1 (stereo unspecified) too.
Response: 26.1

Prompt: Ok, now CCOC(=O)C1=C(C)N(c2ccc(Cl)cc2)C2(O)C=CC(Nc3ccc(Cl)cc3)=C3C(=O)N(c4ccccc4)C(=O)C312 (stereo unspecified)
Response: 13.5

* * *

Tested on: CCRF-CEM leukemia
Test: NCI tumour cell line growth inhibition, 48 h; in the data active = GI50 below about 0.43 µM; inactive = the rest
Form entry, call: pick from y for active, n for inactive

Here are 6 compounds together with their reported answers.
>  <compound>
Oc1[nH]c2ccccc2c1/C=c1/ccc2c(c1)N=C(c1cc(F)cc(F)c1)N=2

>  <tested.target>
CCRF-CEM leukemia

>  <category>
n

$$$$
>  <compound>
CCN(CC)CC(O)c1cc(-c2ccc(Cl)cc2)nc2cc(Cl)ccc12 (stereo not drawn)

>  <tested.target>
CCRF-CEM leukemia

>  <category>
n

$$$$
>  <compound>
C1C[S][Ge]2([S]CCS1)[S]CCSCC[S]2

>  <tested.target>
CCRF-CEM leukemia

>  <category>
n

$$$$
>  <compound>
Nc1nc(Cl)nc2c1ncn2C1OC(CO)C(O)C1O (stereo not drawn)

>  <tested.target>
CCRF-CEM leukemia

>  <category>
y

$$$$
>  <compound>
COc1cccc(/C=C2\CCc3ccccc3C2=O)c1

>  <tested.target>
CCRF-CEM leukemia

>  <category>
n

$$$$
>  <compound>
O=C(c1ccccc1)c1c2n(c3c1cc(O)c1ccccc13)CCN2

>  <tested.target>
CCRF-CEM leukemia

>  <category>
n

$$$$

Prompt: Tell me the assay call for Nc1nc(N)c2nc(CNc3ccc(C(=O)NC(CCNC(=O)c4ccccc4C(=O)O)C(=O)O)cc3)cnc2n1 (stereo not drawn) please.
Response: y

Prompt: And the next one, O=C(Nc1ccc(Cl)cc1)c1cc2ccccc2cc1OP(=O)(O)O ?
Response: n

* * *

Tested on: M14 melanoma
Test: NCI tumour cell line growth inhibition, 48 h
Listed below: GI50 values for each entry.

Prompt: Tell me the measured GI50 of CCCCCCn1c2c(c3c(O)cccc31)C(=O)c1ccccc1-2 , please.
Response: 15.7 µM

* * *

System: 786-0 renal
Assay: NCI tumour cell line growth inhibition, 48 h
Catalogue of TGI values

Reference set (4 entries):
>  <compound>
C1=CC(=NN=P(c2ccccc2)(c2ccccc2)c2ccccc2)C=C1

>  <tested.target>
786-0 renal

>  <TGI>
> 100 µM

$$$$
>  <compound>
COc1c(OC)c(OC)c(-c2cc(=O)c3c(OC)c(OC)c(OC)c(OC)c3o2)c(OC)c1OC

>  <tested.target>
786-0 renal

>  <TGI>
37 µM

$$$$
>  <compound>
CC(C)(/C=N/O)/[N+]([O-])=C/c1ccccc1

>  <tested.target>
786-0 renal

>  <TGI>
> 100 µM

$$$$
>  <compound>
O=c1sc(-c2nc3ccccc3[nH]2)c(/N=C/c2ccccc2)n1-c1ccccc1

>  <tested.target>
786-0 renal

>  <TGI>
> 100 µM

$$$$

Here's the next entry for you.
Prompt: Fill in the blank: the reported TGI of Nc1ccn(CCCC(c2ccccc2)P(=O)(O)O)c(=O)n1 (stereo not given) is ____.
Response: > 100 µM

* * *

System: NCI-H23 lung
Assay: NCI tumour cell line growth inhibition, 48 h
Attribute: TGI

Answered examples (10):
>  <compound>
COc1ccc(NC(=O)C2=CC(=O)c3ccc(O)cc3C2=O)c(OC)c1

>  <TGI>
> 100 µM

$$$$
>  <compound>
COc1cc(CC2C(=O)OCC2[C@@H](OC(C)=O)c2ccc3c(c2)OCO3)c(Br)c(OC)c1OC (stereo partly specified)

>  <TGI>
> 100 µM

$$$$
>  <compound>
O=C1C=CC(=O)[C@H]2C3C=CC(C4C3C3(Cl)C(Cl)=C(Cl)[C@]4(Cl)C3(Cl)Cl)[C@@H]12 (stereo partly specified)

>  <TGI>
25.7 µM

$$$$
>  <compound>
CSCC(COC(C)=O)(CSC)c1ccncc1

>  <TGI>
> 100 µM

$$$$
>  <compound>
O=C(O)c1ccccc1C1c2ccc(Cl)cc2Oc2cc(Cl)ccc21

>  <TGI>
> 100 µM

$$$$
>  <compound>
COc1cc(C2c3cc4c(cc3OC(NNc3ccccc3)C2C)OCO4)cc(OC)c1O (stereo unspecified)

>  <TGI>
29.4 µM

$$$$
>  <compound>
O=C1c2ccccc2C(=O)c2c(NCC3CO3)cccc21 (stereo unspecified)

>  <TGI>
> 40.4 µM

$$$$
>  <compound>
CC(=O)OC12OC(C)(C3C(=O)N(c4ccccc4)C(=O)C31)N(c1ccccc1)C2=O (stereo unspecified)

>  <TGI>
> 100 µM

$$$$
>  <compound>
NCCN(CCN)/[N+]([O-])=N/O

>  <TGI>
> 100 µM

$$$$
>  <compound>
COc1cc(=O)oc(/C=C/CO)c1C

>  <TGI>
> 100 µM

$$$$

Okay, next one:
Prompt: Value lookup for TGI; key = O=C(Nc1ccc(Cl)cc1)c1cc2ccccc2cc1OP(=O)(O)O
Response: 9.95 µM

* * *

The reader will find reported TGI values listed item by item below.
Tested on: RPMI-8226 leukemia
Assay: NCI tumour cell line growth inhibition, 48 h

Worked cases, answers included:
>  <molecule>
CN(CC1NCCCC1O)C12CC3CC(CC(C3)C1)C2 (stereo unspecified)

>  <observed>
> 100 µM

$$$$
>  <molecule>
CC(=O)CC12NC(=O)N(C)N=C1N(C)C(=O)N(C)C2=O (stereo unspecified)

>  <observed>
> 100 µM

$$$$
>  <molecule>
Cc1ccnc(NC(c2ccccc2)c2ccc3cccnc3c2O)c1 (stereo unspecified)

>  <observed>
> 100 µM

$$$$
>  <molecule>
COc1ccc2c(c1)C(=O)c1c-2c(OCCN2CCCCC2)nc2ccc(OC)cc12

>  <observed>
2.67 µM

$$$$
>  <molecule>
COC(=O)c1cc2c(nc1C)-c1ccccc1OS2(=O)=O

>  <observed>
> 100 µM

$$$$

Proceed to the following item.
Prompt: # query: TGI | item O=C(NCCCc1cn[nH]c(=O)n1)c1cccc2nc3ccccc3nc12 | system: RPMI-8226 leukemia
Response: > 100 µM
